- Tested on: Streptococcus spp. spontaneous mutants
- experiment: organism not typed
- Assay type: cell-based
- conditions: S. pyogenes ATCC 49399; selected on rifaximin 4X MIC; Colony A

structureSmiles	inequalitySymbol	MIC, µg/mL
CC[C@H]1OC(=O)[C@H](C)[C@@H](O[C@H]2C[C@@](C)(OC)[C@@H](O)[C@H](C)O2)[C@H](C)[C@@H](O[C@@H]2O[C@H](C)C[C@H](N(C)C)[C@H]2O)[C@](C)(O)C[C@@H](C)CN(C)[C@H](C)[C@@H](O)[C@]1(C)O	=	0.06
C[C@@H](O)[C@H]1C(=O)N2C(C(=O)O)=C(S[C@@H]3CN[C@H](C(=O)N(C)C)C3)[C@H](C)[C@H]12	=	0.002
COc1c(N2C[C@@H]3CCCN[C@@H]3C2)c(F)cc2c(=O)c(C(=O)O)cn(C3CC3)c12	=	0.06
CO/N=C(\C(=O)N[C@@H]1C(=O)N2C(C(=O)O)=C(CSc3nc(=O)c(=O)[nH]n3C)CS[C@H]12)c1csc(N)n1	=	0.008
CO[C@H]1/C=C/O[C@@]2(C)Oc3c(C)c(O)c4c(O)c(c5c(nc6cc(C)ccn65)c4c3C2=O)NC(=O)/C(C)=C\C=C\[C@H](C)[C@H](O)[C@@H](C)[C@@H](O)[C@@H](C)[C@H](OC(C)=O)[C@@H]1C	>	8
CN(C)[C@@H]1C(O)=C(C(N)=O)C(=O)[C@@]2(O)C(O)=C3C(=O)c4c(O)cccc4[C@@](C)(O)[C@H]3C[C@@H]12	=	0.12
CCC[C@@H]1C[C@@H](C(=O)N[C@@H]([C@H]2O[C@H](SC)[C@H](O)[C@@H](O)[C@H]2O)[C@H](C)Cl)N(C)C1	=	0.03

====

- Test system: Staphylococcus aureus
- experiment: Broth microdilution MIC, 50 clinical isolates (28 MRSA)
- Format: cell-based
- conditions: Staphylococcus aureus; read-out: MIC50
MIC50 overview
reportedEndpoint: MIC50

>>> df
                                   compound  reportedendpoint   datavalue
0  C[C@@H](O)[C@H]1C(=O)N2C(C(=O)O)=C(S[C@@H]3CN[C@H](C(=O)N(C)C)C3)[C@H](C)[C@H]12 [meropenem]             MIC50     1 µg/mL
1  CO/N=C(\C(=O)N[C@@H]1C(=O)N2C(C(=O)O)=C(CSc3nc(=O)c(=O)[nH]n3C)CS[C@H]12)c1csc(N)n1 [ceftriaxone]             MIC50    32 µg/mL
2  COc1c(N2C[C@@H]3CCCN[C@@H]3C2)c(F)cc2c(=O)c(C(=O)O)cn(C3CC3)c12 [moxifloxacin]             MIC50  0.12 µg/mL
3  Cc1onc(-c2ccccc2)c1C(=O)N[C@@H]1C(=O)N2[C@@H]1SC(C)(C)[C@@H]2C(=O)O [oxacillin, Oxacillin]             MIC50     8 µg/mL
